Tgt: Type-1 angiotensin II receptor (Homo sapiens) (UniProt P30556)
Sequence (P30556 whole entry): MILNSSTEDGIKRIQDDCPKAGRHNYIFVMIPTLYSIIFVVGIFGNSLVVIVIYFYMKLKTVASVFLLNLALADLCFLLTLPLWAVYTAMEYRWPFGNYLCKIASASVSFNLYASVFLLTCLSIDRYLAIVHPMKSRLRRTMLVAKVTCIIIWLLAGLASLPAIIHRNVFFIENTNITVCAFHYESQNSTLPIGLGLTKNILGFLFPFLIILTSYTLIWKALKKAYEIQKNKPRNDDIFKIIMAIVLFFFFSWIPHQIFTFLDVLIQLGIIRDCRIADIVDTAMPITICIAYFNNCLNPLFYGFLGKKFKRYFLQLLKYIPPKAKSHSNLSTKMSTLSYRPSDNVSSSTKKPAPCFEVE
Method: Displacement of [125I]-Sar(1)Ile(8)-Ang 2 from human AT1 receptor in CHO cells
Assay type: cell-based
Calls of active or inactive are those of the source. The rule behind the calls is not given here.
Labels: yes (1) for active, no (0) for inactive

>>> label_class("O=c1[nH]c2ccccc2c(=O)n1Cc1ccc(-c2ccccc2-c2nn[nH]n2)cc1")
"yes (1)"
>>> label_class("Oc1nc(SCc2ccc(-c3ccccc3-c3nn[nH]n3)cc2)nc2ccccc12")
"no (0)"
>>> label_class("CSc1nc2ccccc2c(=O)n1Cc1ccc(-c2ccccc2-c2nn[nH]n2)cc1")
"yes (1)"
>>> label_class("CSc1nc2ccccc2c(=O)n1Cc1ccc(-c2ccccc2C(=O)O)cc1")
"yes (1)"
>>> label_class("CCCCc1nc(Cl)c(CO)n1Cc1ccc(-c2ccccc2-c2nnn[nH]2)cc1")
"yes (1)"
